SYSTEM_UNDER_TEST: PDGF-receptor beta enzyme comprising the tyrosine kinase domain (Homo sapiens)
Construct: from amino acid 545 to 1106 of GenBank Access NO: AAA36427
ASSAY_NAME: Inhibition of PDGF-receptor kinase activity (cell-free, PLC1 peptide, 33P Flashplate)
Format: biochemical
MEASUREMENT_CONDITIONS: PDGF-R kinase activity; read-out: IC50
Procedure: PDGF-R kinase activity was assayed by its ability to phosphorylate one of its target proteins, PLCγ, in a cell-free system, in particular, a PLC1 peptide comprising the tyrosine residue where the phosphorylation occurs was used for the assay. […] In order to test the potency of inhibition of present compounds, an IC50 for an individual compound was measured using the above procedure. […]
ASSAY_METRIC: pIC50
Give bare numbers, as −log10 of the molar value.

COc1cc2c(cc1OC)-c1n[nH]c(NCc3ccc(F)cc3F)c1C2 : 6.16

Can you give me pIC50 for all of these, one by one?
1. Fc1cccc(Nc2[nH]nc3c2Cc2ccccc2-3)c1
2. COC(=O)CCCC(=O)n1nc(Nc2cccc(F)c2)c2c1-c1cc(OC)c(OC)cc1C2
3. Fc1cccc(Nc2[nH]nc3c2Cc2cc4c(cc2-3)OCO4)c1

Output:
1. 8.06
2. 6.61
3. 7.12

Can you give me pIC50 for all of these, one by one?
1. COc1cc2c(cc1OC)-c1n[nH]c(Nc3ccc(Cl)cc3Cl)c1C2
2. COc1ccc2c(c1)Cc1c-2n[nH]c1Nc1cccc(Br)c1
3. COc1ccc(OC)c(Nc2[nH]nc3c2Cc2c(OC)cccc2-3)c1

Output:
[5.45, 7.14, 5.53]

Can you give me pIC50 for all of these, one by one?
1. COCCCOc1ccc2c(c1)Cc1c-2n[nH]c1Nc1cccnc1
2. CN(C)c1ccc2c(c1)Cc1c-2n[nH]c1Nc1ccccc1
3. COc1cc2c(cc1OCC(O)CN1CCCC1)Cc1c-2n[nH]c1Nc1cccnc1 (centres unmarked)
4. COc1cccc2c1Cc1c-2n[nH]c1Nc1cccc(OC(F)(F)F)c1
5. COC(=O)n1nc(Nc2cccc(F)c2)c2c1-c1cc(OC)c(OC)cc1C2

Output:
1. 6.34
2. 6.42
3. 8.59
4. 5.08
5. 6.21

Can you give me pIC50 for all of these, one by one?
1. COc1cc2c(cc1OC)-c1c(c(Nc3cccc(F)c3)nn1C(=O)COC(C)=O)C2
2. COc1cc2c(cc1OCC(O)CN1CCCC1)Cc1c-2n[nH]c1Nc1ccc(F)c(Cl)c1 (centres unmarked)
3. COc1ccc2c(c1)Cc1c-2n[nH]c1Nc1cc(OC)ccc1OC
4. COc1cc2c(cc1OC)-c1n[nH]c(Nc3ccc(OC(F)(F)F)cc3)c1C2
5. COc1cc2c(cc1OCc1ccccc1)Cc1c-2n[nH]c1Nc1cccc(F)c1
6. COc1cccc(Nc2[nH]nc3c2Cc2cc(OCCCN4CCOCC4)c(OC)cc2-3)c1
7. COc1cc2c(cc1OCCCN1CCN(C)CC1)Cc1c-2n[nH]c1Nc1cccc(Cl)c1
8. CC1c2ccccc2-c2n[nH]c(Nc3cccnc3)c21 (centres unmarked)

Output:
7.75
8.76
5.23
5.40
6.69
7.89
8.57
6.27

Can you give me pIC50 for all of these, one by one?
1. CCC1c2cc(OC)c(OC)cc2-c2nn(C(=O)COCc3ccccc3)c(Nc3cccc(Br)c3)c21 (centres unmarked)
2. COC(=O)C(NC(=O)n1nc2c(c1Nc1cccc(F)c1)Cc1cc(OC)c(OC)cc1-2)C(C)C (centres unmarked)
3. COC(=O)n1nc2c(c1Nc1cccc(F)c1)Cc1cc(OC)c(OC)cc1-2
4. COc1cccc(Nc2[nH]nc3c2Cc2cc(OCC(O)CN4CCCC4)c(OC)cc2-3)c1 (centres unmarked)
5. CCOc1cccc(Nc2[nH]nc3c2Cc2cc(OCC(O)CO)c(OC)cc2-3)c1 (centres unmarked)
6. COC(=O)C(NC(=O)n1nc(Nc2cccc(F)c2)c2c1-c1cc(OC)c(OC)cc1C2)C(C)C (centres unmarked)
7. COc1cc2c(cc1OCC(O)CO)Cc1c-2n[nH]c1Nc1cccc(Cl)c1 (centres unmarked)
8. COc1cc2c(cc1OC)-c1c(c(Nc3cccc(F)c3)nn1C(=O)CCC(=O)O)C2

Output:
6.74
5.94
6.30
9.37
8.09
5.38
8.69
7.51

Can you give me pIC50 for all of these, one by one?
1. COc1cc2c(c(NC(C)=O)c1OC)Cc1c-2n[nH]c1Nc1cccc(F)c1
2. COc1cc2c(cc1OC)-c1c(c(Nc3cccc(F)c3)nn1C(=O)NCCNC(C)=O)C2
3. CCOc1cccc(Nc2[nH]nc3c2Cc2cc(OCC)c(OCC)cc2-3)c1
4. CCOC(=O)c1ccc(Nc2[nH]nc3c2Cc2cc(OC)c(OC)cc2-3)cc1
5. COc1cc2c(cc1OC)C(C)(C)c1c-2n[nH]c1Nc1cccc(F)c1
6. Cc1cccc2c1Cc1c-2n[nH]c1Nc1ccc(OC(F)(F)F)cc1
7. CN1CCN(c2ccc3c(c2)Cc2c-3n[nH]c2Nc2cccc(Br)c2)CC1

Output:
[7.49, 5.09, 6.99, 5.68, 4.43, 6.18, 7.79]

====

SYSTEM_UNDER_TEST: PDGF-receptor beta enzyme comprising the tyrosine kinase domain (Homo sapiens, UniProt P09619)
Construct: from amino acid 545 to 1106 of GenBank Access NO: AAA36427
Sequence (P09619 545-1106): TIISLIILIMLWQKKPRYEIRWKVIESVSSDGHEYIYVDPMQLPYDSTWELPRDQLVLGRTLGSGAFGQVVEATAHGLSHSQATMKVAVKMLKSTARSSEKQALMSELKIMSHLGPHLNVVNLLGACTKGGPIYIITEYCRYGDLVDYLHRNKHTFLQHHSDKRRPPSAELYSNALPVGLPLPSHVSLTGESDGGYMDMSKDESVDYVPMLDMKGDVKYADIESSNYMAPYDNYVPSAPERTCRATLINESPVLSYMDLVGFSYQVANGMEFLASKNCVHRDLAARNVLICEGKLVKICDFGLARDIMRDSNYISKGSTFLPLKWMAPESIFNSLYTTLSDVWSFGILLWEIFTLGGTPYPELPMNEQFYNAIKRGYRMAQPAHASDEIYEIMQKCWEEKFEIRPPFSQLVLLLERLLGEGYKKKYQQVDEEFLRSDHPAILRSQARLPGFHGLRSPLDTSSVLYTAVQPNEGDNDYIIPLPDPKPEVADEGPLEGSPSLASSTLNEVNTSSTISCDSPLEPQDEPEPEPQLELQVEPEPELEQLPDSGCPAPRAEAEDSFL
ASSAY_NAME: Inhibition of PDGF-receptor kinase activity (cell-free, PLC1 peptide, 33P Flashplate)
Type: biochemical
MEASUREMENT_CONDITIONS: PDGF-R kinase activity; compound at 10 uM; read-out: Percent Inhibition @ 10 uM
ASSAY_METRIC: inhibition at 10 µM (%)
Numbers only, in %.

COc1cc2c(cc1OC)-c1c(c(Nc3cccc(F)c3)nn1CC(C)O)C2 (stereo not drawn) [Compound 502] : 60.5
Fc1cccc(Nc2[nH]nc3c2Cc2cc(Br)ccc2-3)c1 [Compound 151] : 79
COc1cc2c(cc1OC)C(C)c1c-2n[nH]c1Nc1cccc(OCc2ccccc2)c1 (stereo not drawn) [Compound 254] : 89
COc1cc2c(cc1OCCCO)Cc1c-2n[nH]c1NCc1c(Cl)cccc1Cl [Compound 448] : 100
Nc1ccc2c(c1)Cc1c-2n[nH]c1Nc1cccc(Cl)c1 [Compound 119] : 90
COc1cc2c(cc1OC)-c1n[nH]c(Nc3cccc(F)c3Br)c1C2 [Compound 410] : 83.5
COC(=O)c1cccc(Nc2[nH]nc3c2Cc2cc(N)ccc2-3)c1 [Compound 120] : 87
CN(C)CCCOc1cccc2c1Cc1c-2n[nH]c1Nc1ccccc1 [Compound 71] : 110

Can you give me inhibition at 10 µM for all of these, one by one?
1. COc1cc2c(cc1OC)-c1n[nH]c(NCc3cccc(OC)c3OC)c1C2 [Compound 322]
2. Cc1ccc2c(c1)-c1n[nH]c(Nc3cc(F)ccc3F)c1C2 [Compound 185]
3. COc1cc2c(cc1OC)-c1n[nH]c(Nc3ccc(N(C)C)cc3)c1C2 [Compound 40]
4. COc1cc2c(cc1OC)C(C)c1c-2n[nH]c1Nc1cccc(Br)c1 (stereo not drawn) [Compound 256]
5. COc1cc2c(cc1OC)-c1nn(C(C)=O)c(Nc3cccc(F)c3)c1C2 [Compound 406]

Output:
22
84
63
89
96

Can you give me inhibition at 10 µM for all of these, one by one?
1. Cc1ccc(Cl)cc1Nc1[nH]nc2c1Cc1ccccc1-2 [Compound 338]
2. COc1cccc(Nc2[nH]nc3c2Cc2cc(F)c(OC)cc2-3)c1 [Compound 360]
3. CC(C)Oc1cc2c(cc1OC(C)C)C(C)c1c-2n[nH]c1Nc1cccnc1 (stereo not drawn) [Compound 352]
4. Fc1ccc(F)c(Nc2[nH]nc3c2Cc2cc(Br)ccc2-3)c1 [Compound 153]

Output:
1. 78.5
2. 98
3. 86.5
4. 79

Task: Provide one value: measured inhibition at 10 µM of COc1cc2c(cc1OC)-c1n[nH]c(Nc3cccc(Cl)c3Cl)c1C2 [Compound 20]
Output: 77

====

SYSTEM_UNDER_TEST: c-Abl kinase (Abelson murine leukemia virus, UniProt P00521)
Sequence (P00521 115-385): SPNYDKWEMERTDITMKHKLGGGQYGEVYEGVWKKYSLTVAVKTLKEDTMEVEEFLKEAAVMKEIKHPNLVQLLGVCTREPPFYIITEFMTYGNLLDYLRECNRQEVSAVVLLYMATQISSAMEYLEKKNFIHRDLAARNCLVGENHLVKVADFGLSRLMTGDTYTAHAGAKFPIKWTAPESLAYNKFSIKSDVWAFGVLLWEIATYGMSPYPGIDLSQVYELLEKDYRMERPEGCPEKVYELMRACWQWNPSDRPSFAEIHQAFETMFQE
ASSAY_NAME: Inhibition of c-Abl kinase activity (cell-free, Abl peptide substrate, 33P Flashplate)
Type: biochemical
MEASUREMENT_CONDITIONS: IC50 for the c-Abl kinase activity
ASSAY_METRIC: pIC50
Give bare numbers, as −log10 of the molar value.

Some molecules with known pIC50 results, for comparison:
COc1cccc(Nc2[nH]nc3c2C(C)c2cc(OC)c(OC)cc2-3)c1 (centres unmarked) : 7.42
Cc1ccc2c(c1)-c1n[nH]c(Nc3cc(F)ccc3F)c1C2 : 6.18
Clc1cccc(Cl)c1CNc1[nH]nc2c1Cc1c(OCCCN3CCOCC3)cccc1-2 : 6.66
COc1cc2c(cc1OCCCN1CCOCC1)Cc1c-2n[nH]c1Nc1cccc(F)c1 : 5.94

Task: Provide one value: measured pIC50 of Fc1cccc(Nc2[nH]nc3c2oc2ccccc23)c1
Output: 6.49
